# key: entry, value: EC50
- assay target: T1, cynoCSF1R ECD-Fc (cynomolgus)
- T1 construct: also called cynomolgus CSF1R ECD
- T1 sequence (chain, as listed by the source): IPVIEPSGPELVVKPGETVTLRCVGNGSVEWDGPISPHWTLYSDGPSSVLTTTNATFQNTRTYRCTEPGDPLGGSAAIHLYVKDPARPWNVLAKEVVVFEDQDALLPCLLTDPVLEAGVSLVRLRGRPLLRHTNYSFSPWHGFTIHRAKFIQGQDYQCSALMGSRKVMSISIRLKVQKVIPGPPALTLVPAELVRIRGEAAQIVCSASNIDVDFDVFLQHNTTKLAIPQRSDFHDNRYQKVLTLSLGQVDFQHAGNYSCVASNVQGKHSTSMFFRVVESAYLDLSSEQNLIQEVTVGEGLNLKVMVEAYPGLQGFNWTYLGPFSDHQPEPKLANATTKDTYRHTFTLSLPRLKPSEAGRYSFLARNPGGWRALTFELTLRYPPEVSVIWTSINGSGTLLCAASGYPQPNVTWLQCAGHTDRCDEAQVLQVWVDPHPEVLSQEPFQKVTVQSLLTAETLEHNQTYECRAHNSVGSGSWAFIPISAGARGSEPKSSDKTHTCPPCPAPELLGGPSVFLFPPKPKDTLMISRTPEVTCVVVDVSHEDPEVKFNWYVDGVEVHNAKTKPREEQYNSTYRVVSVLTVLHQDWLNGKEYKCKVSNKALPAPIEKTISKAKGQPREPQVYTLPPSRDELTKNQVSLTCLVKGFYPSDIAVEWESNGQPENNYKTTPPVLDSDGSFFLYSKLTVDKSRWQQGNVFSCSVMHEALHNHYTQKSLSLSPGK
- assay text: ELISA, plate coated with cynoCSF1R ECD-Fc
Express your answer in µg/mL, writing the number without its unit.

Worked cases, answers included:
# binder, EC50 / µg/mL
records = [
    ("h0302-L2H2 (antibody, human IgG4 S228P, kappa, V domains shown, also called Ab12; huAb 0302-L2H2) VH: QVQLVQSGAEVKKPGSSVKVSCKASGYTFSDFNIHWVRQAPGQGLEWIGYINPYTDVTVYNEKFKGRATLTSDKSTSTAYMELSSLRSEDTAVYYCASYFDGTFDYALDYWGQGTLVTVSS VL: EIVVTQSPATLSLSPGERATLSCRASESVDNYGLSFMNWFQQKPGQAPRLLIYTASNLESGIPARFSGSGSRTDFTLTISSLEPEDFAVYYCQQSKELPWTFGQGTKVEIKR", 0.018),
    ("h0311-L0H1 (antibody, human IgG4 S228P, kappa, V domains shown, also called Ab13; huAb 0311-L0H1) VH: QVQLVQSGAEVKKPGSSVKVSCKASGYIFTDYNMHWVRQAPGQGLEWMGEINPNNGVVVYNQKFKGRVTITVDKSTSTAYMELSSLRSEDTAVYYCTRALYHSNFGWYFDSWGQGTLVTVSS VL: EIVLTQSPATLSLSPGERATLSCKASQSVDYDGDSHMNWYQQKPGQAPRLLIYTASNLESGIPARFSGSGSGTDFTLTISSLEPEDFAVYYCQQGNEDPWTFGQGTKVEIKR", 0.0216),
    ("h0311-L0H2 (antibody, human IgG4 S228P, kappa, V domains shown, also called Ab15; huAb 0311-L0H2) VH: QVQLVQSGAEVKKPGSSVKVSCKASGYIFTDYNMHWVRQAPGQGLEWMGEINPNNGVVVYNQKFKGTTTLTVDKSTSTAYMELSSLRSEDTAVYYCTRALYHSNFGWYFDSWGQGTLVTVSS VL: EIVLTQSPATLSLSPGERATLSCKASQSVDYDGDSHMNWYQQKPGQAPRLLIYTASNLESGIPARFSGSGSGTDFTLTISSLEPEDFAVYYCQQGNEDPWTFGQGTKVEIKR", 0.0175),
]

Okay, now this binder:
Input: Please list EC50 recorded for the binder h0302-L2H1 (antibody, human IgG4 S228P, kappa, V domains shown, also called Ab9; huAb 0302-L2H1) VH: QVQLVQSGAEVKKPGSSVKVSCKASGYTFSDFNIHWVRQAPGQGLEWMGYINPYTDVTVYNEKFKGRVTITSDKSTSTAYMELSSLRSEDTAVYYCASYFDGTFDYALDYWGQGTLVTVSS VL: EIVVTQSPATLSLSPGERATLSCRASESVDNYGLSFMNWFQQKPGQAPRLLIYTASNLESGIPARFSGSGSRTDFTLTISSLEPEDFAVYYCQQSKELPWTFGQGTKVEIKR
Output: 0.066
